# subject.of.test: T1, human kallikrein-2 (hK2) (human, UniProt P20151 25-261)
# T1 construct: The mature protein is said to be underlined, but the underlining is not recoverable from the text; In the assay hK2 was amine-coupled to a CM4 chip; also called human glandular kallikrein 2; antigen hK2
# assay.comment: SPR, Biacore 3000, hK2 on CM4 chip, mean of channels fc2 and fc3
Listing of entries alongside the reported koff.
// units = s⁻¹; emit number, no label

// worked examples, koff included
Task item: Recall and state the measured koff for h11B6-DFO (humanised 11B6 conjugated with deferoxamine) (antibody, human IgG1, kappa, V domains shown, DFO (deferoxamine) chelator coupled; residues and chain not stated, This is the h11B6 IgG1/kappa carrying DFO; also called h1166-DFO; DFO-h11B6) VH: QVQLQESGPGLVKPSDTLSLTCAVSGNSITSDYAWNWIRQPPGKGLEWIGYISYSGSTTYNPSLKSRVTMSRDTSKNQFSLKLSSVTAVDTAVYYCATGYYYGSGFWGQGTLVTVSS VL: DIVLTQSPDSLAVSLGERATINCKASESVEYFGTSLMHWYQQKPGQPPKLLIYAASNRESGVPDRFSGSGSGTDFTLTISSLQAEDVAVYYCQQTRKVPYTFGQGTKLEIKR .
Reply: 5.7e-05

Task item: Recall and state the measured koff for murine 11B6 antibody (m11B6), parent murine anti-hK2 monoclonal antibody (antibody, mouse IgG1, kappa, V domains shown, Whole murine IgG obtained from the University of Turku; also called mAb 11B6; ml 1B6) VH: DVQLQESGPGLVKPSQSLSLTCTVTGNSITSDYAWNWIRQFPGNRLEWMGYISYSGSTTYSPSLKSRFSITRDTSKNQFFLQLNSVTPEDTATYFCATGYYYGSGFWGQGTLVTVSS VL: DIVLTQSPASLAVSLGQRATISCRASESVEYFGTSLMHWYRQKPGQPPKLLIYAASNVESGVPARFSGSGSGTDFSLNIQPVEEDDFSMYFCQQTRKVPYTFGGGTKLEIKR .
Reply: 3.4e-05

Task item: Recall and state the measured koff for humanised 11B6 antibody (h11B6), IgG1/kappa (antibody, V domains shown, Expressed transiently in HEK293 cells; also called h1186) VH: QVQLQESGPGLVKPSDTLSLTCAVSGNSITSDYAWNWIRQPPGKGLEWIGYISYSGSTTYNPSLKSRVTMSRDTSKNQFSLKLSSVTAVDTAVYYCATGYYYGSGFWGQGTLVTVSS VL: DIVLTQSPDSLAVSLGERATINCKASESVEYFGTSLMHWYQQKPGQPPKLLIYAASNRESGVPDRFSGSGSGTDFTLTISSLQAEDVAVYYCQQTRKVPYTFGQGTKLEIKR .
Reply: 6.7e-05

// switching to the query binder
Task item: Recall and state the measured koff for h11B6-DTPA (humanised 11B6 conjugated with DTPA chelator) (antibody, V domains shown, DTPA chelator coupled; residues and chain not stated, This is the h11B6 IgG1/kappa carrying a chelator; also called h1166-DTPA; H1166-DTPA) VH: QVQLQESGPGLVKPSDTLSLTCAVSGNSITSDYAWNWIRQPPGKGLEWIGYISYSGSTTYNPSLKSRVTMSRDTSKNQFSLKLSSVTAVDTAVYYCATGYYYGSGFWGQGTLVTVSS VL: DIVLTQSPDSLAVSLGERATINCKASESVEYFGTSLMHWYQQKPGQPPKLLIYAASNRESGVPDRFSGSGSGTDFTLTISSLQAEDVAVYYCQQTRKVPYTFGQGTKLEIKR .
Reply: 0.000127
